# Tested on: HeLa Kyoto;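 also: synchronized HeLa Kyoto cells, proteins quantified by TMT10plex mass spectrometry, three biological replicates, mitosis taken 0.5 h after nocodazole release, G1/S directly after double thymidine block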
# ASSAY PROTOCOL: thermal stability score vs G1/S (z-score of summed log2 fold changes over temperatures); higher = more thermally stable than in G1/S
# ASSAY CONTEXT: cell cycle stage: mitosis
Each entry below carries its recorded thermal stability score.
OBSERVABLE: thermal stability score

sequence="MAVNVYSTSVTSDNLSRHDMLAWINESLQLNLTKIEQLCSGAAYCQFMDMLFPGSIALKKVKFQAKLEHEYIQNFKILQAGFKRMGVDKIIPVDKLVKGKFQDNFEFVQWFKKFFDANYDGKDYDPVAARQGQETAVAPSLVAPALNKPKKPLTSSSAAPQRPISTQRTAAAPKAGPGVVRKNPGVGNGDDEAAELMQQVNVLKLTVEDLEKERDFYFGKLRNIELICQENEGENDPVLQRIVDILYATDEGFVIPDEGGPQEEQEEY [MAPRE1]" assay_value=-0.675
sequence="MAAVVVAAAGGAGPAVLQVAGLYRGLCAVRSRALGLGLVSPAQLRVFPVRPGSGRPEGGADSSGVGAEAELQANPFYDRYRDKIQLLRRSDPAAFESRLEKRSEFRKQPVGHSRQGDFIKCVEQKTDALGKQSVNRGFTKDKTLSSIFNIEMVKEKTAEEIKQIWQQYFAAKDTVYAVIPAEKFDLIWNRAQSCPTFLCALPRREGYEFFVGQWTGTELHFTALINIQTRGEAAASQLILYHYPELKEEKGIVLMTAEMDSTFLNVAEAQCIANQVQLFYATDRKETYGLVETFNLRPNEFKYMSVIAELEQSGLGAELKCAQNQNKT [ATPAF1]" assay_value=1.83
sequence="MQTPVNIPVPVLRLPRGPDGFSRGFAPDGRRAPLRPEVPEIQECPIAQESLESQEQRARAALRERYLRSLLAMVGHQVSFTLHEGVRVAAHFGATDLDVANFYVSQLQTPIGVQAEALLRCSDIISYTFKP [GEMIN7]" assay_value=-0.344
